molecular target: T1, recombinant full-length tau 2N4R (control tau) (human, UniProt P10636 2-758); assay: direct ELISA on full-length 2N4R Tau coated at 1 ng/mL
T1 construct: also called recombinant WT (2N4R) tau; Rec; Tau
T1 sequence (P10636 other isoform, or with tags, fused parts or gaps limits assumed): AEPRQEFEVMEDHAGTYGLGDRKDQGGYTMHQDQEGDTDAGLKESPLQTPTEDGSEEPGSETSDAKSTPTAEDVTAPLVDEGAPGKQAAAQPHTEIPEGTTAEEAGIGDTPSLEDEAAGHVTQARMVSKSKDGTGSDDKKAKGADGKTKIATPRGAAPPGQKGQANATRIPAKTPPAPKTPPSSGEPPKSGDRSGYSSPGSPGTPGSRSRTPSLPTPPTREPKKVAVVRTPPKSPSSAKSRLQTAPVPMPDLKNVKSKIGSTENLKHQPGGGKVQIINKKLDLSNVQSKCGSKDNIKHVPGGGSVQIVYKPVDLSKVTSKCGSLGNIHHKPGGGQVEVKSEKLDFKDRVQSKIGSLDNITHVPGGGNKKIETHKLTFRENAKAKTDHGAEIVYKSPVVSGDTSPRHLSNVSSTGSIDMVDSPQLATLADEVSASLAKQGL
Below, each entry is listed with its recorded EC50 (read off the curve).

Examples from the recorded data:
BINDER: PT66 monoclonal antibody (recombinant, mouse IgG2a/kappa) (antibody, V domains shown, also called PT66 (PT1B545)) VH: QVQLQQPGAELVKPGASVKMSCKASGYTFTSYWITWVKQRPGQGLEWIGDIHPGRGSTKSNEKFKSKATLTVDTSSSTAYMQFSSLTSEDSAVYYCARRWGFDYWGQGTTLTVSS VL: DIVITQDELSNPVTSGESVSISCRSSKSLLYKDGKTYLNWFLQRPGQSPQLLIYLMSTRASGVSDRFSGSGSGTDFTLEISRVKAEDVGVYYCQQLVDYPLTFGAGTKLELKR
EC50 (read off the curve): ~0.04 µg/mL
--
BINDER: PT/66 hybridoma (antibody, V domains shown, parent of m2; also called hybridoma-produced PT/66) VH: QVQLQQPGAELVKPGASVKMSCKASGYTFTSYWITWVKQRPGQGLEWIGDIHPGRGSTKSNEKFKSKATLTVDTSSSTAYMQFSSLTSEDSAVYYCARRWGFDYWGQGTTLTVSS VL: DIVITQDELSNPVTSGESVSISCRSSKSLLYKDGKTYLNWFLQRPGQSPQLLIYLMSTRASGVSDRFSGSGSGTDFTLEISRVKAEDVGVYYCQQLVDYPLTFGAGTKLELK
EC50 (read off the curve): ~0.01 µg/mL
--
BINDER: hTau/60 hybridoma (antibody, V domains shown, parent of m1; also called hybridoma-produced hTau/60) VH: EVQLQQSGPELVKPGTSVKISCKVFGYTFTDYYMNWVKQSHGKSLEWIGDINPDNGETTYNQKFKGKATLTVDKSSSTAYMELRSLTSEDSAVYYCAKGATFVYWGQGTLVTVSA VL: DVVMTQTPLSLPVSLGDQASISCISSQSLVHSTGTTFLHWFLQKPGQSPKLLIYKVSNRFSGVPDRFSGSGSGTDFTLKISRVEAEDLGFYFCSQSTYFPLTFGSGTKLEIK
EC50 (read off the curve): ~0.005 µg/mL

Attention now shifts to the item below.
Look up and state reported EC50 (read off the curve) for hTau60 monoclonal antibody (recombinant, mouse IgG2a/kappa) (antibody, V domains shown, also called hTau60 (PT1B469)) VH: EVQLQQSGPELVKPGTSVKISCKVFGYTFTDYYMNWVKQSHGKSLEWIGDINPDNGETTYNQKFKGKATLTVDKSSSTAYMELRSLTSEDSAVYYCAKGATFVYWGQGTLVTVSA VL: DVVMTQTPLSLPVSLGDQASISCISSQSLVHSTGTTFLHWFLQKPGQSPKLLIYKVSNRFSGVPDRFSGSGSGTDFTLKISRVEAEDLGFYFCSQSTYFPLTFGSGTKLEIKR
~0.01 µg/mL
